Each entry below lists one item and its recorded growth value.
System: ACHN renal
EXPERIMENT_SUMMARY: NCI-60 one-dose screen, 48 h (100 = growth as untreated, 0 = no growth, -100 = all killed)
COND: 10 µM unless noted
This is part of a sample that, as a whole, favours compounds with a hit. Of some 83,000 tested, about 20% had one in any assay.
VALUE_TYPE: growth (%)

COMPOUND | VALUE_TYPE | REPORTED
CCN(CC)c1ccc(C2=NN(C(C)=O)C(c3cc(OC)c(OC)c(OC)c3)C2)cc1 (centres undefined) | growth | 40.3
CC1CN(C2CCCCC2)C(=S)N(c2ccccc2)C1=O (centres undefined) | growth | 110
Cc1ccc(C2CC(c3ccc(Nc4ccnc5cc(Cl)ccc45)cc3)=NN2C=O)cc1 (centres undefined) | growth | 34.8
COc1ccn2c(C(C)=O)cc(C(=O)c3ccc4c(c3)Sc3ccccc3N4)c2c1 | growth | 20.7
COc1cc(C(=O)c2cc(C)c3[nH]c4ccc(C)cc4c3c2C)cc(OC)c1OC | growth | 26.4
Cc1ccc(C(=O)NN2C(=O)CSC2c2ccc(Cl)cc2)cn1 (centres undefined) | growth | 96.5
COc1ccc2nc(NC(=O)c3cccnc3Nc3ccc(S(N)(=O)=O)cc3)sc2c1 | growth | 90
NC[C@@H]1O[C@H](O[C@@H]2[C@@H](CO)OC(O[C@@H]3[C@@H](O)[C@H](N)C[C@H](N)[C@H]3OC3O[C@H](CN)[C@@H](O)[C@H](O)[C@H]3N)[C@@H]2O)[C@H](N)[C@@H](O)[C@@H]1O (some centres undefined) | growth | 105
COc1cc(C2CC(c3ccc(N(C)C)cc3)=NN2C(C)=O)cc(OC)c1OC (centres undefined) | growth | 44.9
